The reported numbers originate from PubChem BioAssay (NCI).

# Test system: SK-MEL-5 melanoma
# experiment: NCI-60 one-dose screen, 48 h
# experimental_conditions: 10 µM
Compounds without any hit were thinned out: in the full panel of roughly 83,000, 20% have a hit. Activity calls are given as the source filed them. How the source made its calls: active means growth percent below 10; inactive means the rest.
Outcomes you can answer with include only these: yes (1) = active, no (0) = inactive

Completed entries (count: 3):
compound	cat
COc1ccc(C2CC(c3cccs3)=NN2c2ccc(S(N)(=O)=O)cc2)cc1 (centres undefined)	no (0)
COc1ccc(C2CC(c3cc(OC)c(OC)c(OC)c3)=NN2)cc1 (centres undefined)	no (0)
COc1ccc(-c2n[nH]nc2-c2cc(OC)c3c(c2OC)OCO3)cc1	yes (1)

Input line: Hello, I am checking results. What call was entered for `CC[C@H]1OC(=O)[C@H](C)[C@@H](O[C@H]2C[C@@](C)(OC)[C@@H](O)[C@H](C)O2)[C@H](C)[C@@H](O[C@@H]2O[C@H](C)C[C@H](N(C)C)[C@H]2O)[C@](C)(OC)C/C(C)=C2/O[C@@]1(C)C=C2C` ?
Output line: no (0)

Input line: Any idea what this test logged for `CCOC(=O)c1sc2ncnc(Nc3ccc(NC(=O)Nc4ccc(Cl)cc4)cc3)c2c1C` ?
Output line: no (0)

Input line: Identify the outcome logged in this assay for the compound shown: `O=C1/C=C/[C@@H](O)[C@@H]2C[C@@H](O)C[C@H]2/C=C/CCC[C@H](CCc2ccc(NC(=S)Nc3ccc4c(c3)C(=O)OC43c4ccc(O)cc4Oc4cc(O)ccc43)cc2)O1`
Output line: yes (1)

Input line: Name the outcome recorded for `COc1ccc(/C(C#N)=C/c2cccc(OC)c2OC)cc1` in the assay.
Output line: no (0)

###

# System: ACHN renal
# experiment: NCI-60 one-dose screen, 48 h (100 = growth as untreated, 0 = no growth, -100 = all killed)
# experimental_conditions: 10 µM
Compounds without any hit were thinned out: in the full panel of roughly 83,000, 20% have a hit.
Give YES when the value for growth is at least 60%. Give NO when it is less.

compound	cat
COc1cc(-c2nn(-c3cccc(NC(=O)NCCNC(=O)c4ccccc4)c3)cc2-c2ccncc2)ccc1Cl	NO
Nc1ccccc1NC(=O)c1ccc(CCCC(=O)Nc2ccc(C3CC3N)cc2)cc1 (configuration not stated)	NO
COC(=O)c1cc2oc(/C=C3/SC(=S)N(N)C3=O)cc2n1Cc1ccccc1	NO
CC(C)(C)OC(=O)N1CCc2c(sc3ncnc(N/N=C/c4ccccc4Br)c23)C1	NO
COc1ccc(-c2onc(N)c2-c2cc(OC)c3c(c2)OCO3)cc1	NO

Input line: State whether the measured growth reaches 60%, counting equality as reaching it, for `O=C1CC(=O)N(C(=O)c2nn(-c3ccc(Cl)cc3)cc2O)N1`
Output line: NO

Input line: Is the recorded value of growth equal to or greater than 60% for this compound? `O=[N+]([O-])c1ccc(NCSc2ccc(Cl)cc2)cc1`
Output line: YES

Input line: Dear colleague, could you confirm whether `CC(C)(C)c1ccc(S(=O)(=O)Oc2ccc(NC(=O)C3CCCCC3)cc2)cc1` has growth at or above 60%?
Output line: NO

Input line: Could you verify whether the entry `COc1ccc(N=Nc2cc(OC)c(OC)c(OC)c2)cc1` shows growth of no less than 60%?
Output line: YES

Input line: # bool: growth of `CCOC(=O)c1cocc1C(=O)O` >= 60%
Output line: YES

Input line: growth >= 60% for `COc1ccccc1N1CCCSC1=Nc1ccccc1` ?
Output line: YES

Input line: Is the recorded value of growth equal to or greater than 60% for this compound? COC(=O)C1(O)NC(=C(C#N)C#N)C(C#N)=C1C(=O)c1ccc(OC)c(OC)c1 (configuration not stated)
Output line: YES

Input line: For this compound, is measured growth 60% or higher? `Cc1ccc(-n2c(C)nn3c(=O)c4c5c(sc4nc23)CN(C)CC5)cc1`
Output line: YES

Input line: State whether the measured growth reaches 60%, counting equality as reaching it, for `COc1ccc(C(=O)CSc2nc(-c3cc(OC)ccc3OC)cc(-c3ccc(OC)cc3)c2C#N)cc1`
Output line: YES

Input line: Please check the record O=C(Nc1cc(Cl)cc2c1-c1ccc(Cl)cc1C2O)C(Cl)Cl (configuration not stated) and state if its growth is at or above 60%.
Output line: YES

Input line: Can CN(C)c1ncnc2c1nnn2C1OC(CO)C(O)C1O (configuration not stated) be said to have growth at or above 60%?
Output line: NO

Input line: Could you please find out whether `CN(C)CCCOc1ccc(OCCCN(C)C)c2c1C(=O)c1ccccc1C2=O` has growth that meets 60% or exceeds it?
Output line: NO

Input line: Please indicate if the recorded growth for `CCN(CC)CCNc1ccc(C)c2sc3cc(Cl)ccc3c(=O)c12` meets or exceeds 60%.
Output line: NO

Input line: Could you please find out whether CCN1C(=O)CC(SC2CC(=O)N(CC)C2=O)C1=O (configuration not stated) has growth that meets 60% or exceeds it?
Output line: YES

Input line: Answer whether growth of `S=C1N(c2ccccc2)CN(C2CCCCC2)CN1c1ccccc1` is greater than or equal to 60%.
Output line: YES

Input line: Reported growth at or above 60%? Cc1ccccc1N1C(=O)c2cc(S(N)(=O)=O)c(Cl)cc2NC1C (configuration not stated)
Output line: YES

Input line: growth >= 60% for `c1ccc(CSc2ncccc2-c2nnc(SCCN3CCOCC3)o2)cc1` ?
Output line: YES

###

# System: A498 renal
# experiment: NCI-60 one-dose screen, 48 h
# experimental_conditions: 10 µM
The panel holds about 83,000 compounds, 20% with a hit somewhere; the sample as a whole holds those more often. Calls of active or inactive are those of the source. Rule for the calls: active = growth percent below 10; inactive = the rest.
Response enum: active, inactive

compound	target_entity	cat
O=C(/C=C/C=C/c1c(C2CC2)nc2ccccc2c1-c1ccc(F)cc1)c1cccs1	A498 renal	active
Cc1ccc(NCCN(C)CC(C)O)c2c(=O)c3ccc(Cl)cc3sc12 (configuration not stated)	A498 renal	inactive
OC(CNc1ccnc2cc(Cl)ccc12)CNC1CCCCC1 (configuration not stated)	A498 renal	inactive
Cc1ccc(-n2nnnc2N)c(C)c1	A498 renal	inactive
Cc1ccc(NC(=S)NNC(=S)Nc2ccc(C)cc2)cc1	A498 renal	inactive
O=C1c2ccccc2C(=O)N1CCCCNc1ccccc1	A498 renal	inactive
COc1cc(C(=O)n2nc(-c3cc(OC)c(OC)c(OC)c3)nc2N)cc(OC)c1OC	A498 renal	inactive
O=C1CSC(=S)N1/N=C/c1ccc(Cl)s1	A498 renal	inactive

Turning now to a further compound:
Input line: Just curious, what result did `COc1ccc(Nc2cnc3cc(NS(=O)(=O)c4ccc(C)cc4)ccc3n2)cc1` get here?
Output line: inactive

###

# System: SK-MEL-28 melanoma
# experiment: NCI-60 one-dose screen, 48 h (100 = growth as untreated, 0 = no growth, -100 = all killed)
# experimental_conditions: 10 µM
Compounds without any hit were thinned out: in the full panel of roughly 83,000, 20% have a hit.
reported_property: growth (%)
The response must be a number in % with no trailing unit.

compound	reported_property	measured
O=C(COc1cccc(/C=C2\CSc3ccc(Cl)cc3C2=O)c1)c1ccc(Cl)cc1	growth	107
Nc1ccc(-c2cccs2)cc1NC(=O)c1ccc(CCCC(=O)Nc2ccc(C3CC3N)cc2)cc1 (stereo unspecified)	growth	83.1
O=C(CCn1cnc2c(cc(-c3ccccc3)n2-c2ccccc2)c1=O)Nc1ccc(F)cc1	growth	80.5
CC1=CC2C(C(O)CC3(C)C2CC(C)C32OCOC23COCO3)C2(C)C/C(=C/O)C(=O)C=C12 (stereo unspecified)	growth	66.3
Cc1c2cnccc2c(C)c2c1c1cc(O)ccc1n2C(C)C	growth	6.18
Cc1ccc(NC(=O)N2CCCCC2)cc1[N+](=O)[O-]	growth	105
Nc1cc(-c2ccc(Cl)cc2)nn1-c1nc2ccccc2nc1Cc1ccccc1	growth	92.9
Fc1ccc(C(c2ccc(F)cc2)C(Cl)Cl)cc1	growth	101

`Nc1ccn(Cc2nnc(CCC(=O)c3nc4ccccc4[nH]3)o2)c(=O)n1` yielded growth of 104

The reported value for `NC1=CC(=O)C(=O)c2cccnc21` in terms of growth is 83.7

response.value for `COc1ccc2c(c1)CC=C1[C@@H]2CC[C@]2(C)C(=O)/C(=N/O)C[C@@H]12` (field: growth) = 112

growth in this record for CCN1C(=O)CC(SC2CC(=O)N(CC)C2=O)C1=O (stereo unspecified) : 112

growth measured on `COc1cc(NC(=O)Nc2cnc(Nc3ccc(N4CCOCC4)cc3)nc2Oc2cccc(OC)c2)cc(OC)c1` = 32.2

Short answer for `Cc1c2cnccc2c(C)c2c1oc1ccccc12` : growth was 110

The compound O=C1OC(C(Cl)(Cl)Cl)OC1C(Cl)(Cl)Cl (stereo unspecified) showed growth equal to 107

The compound listed as `CNC(=O)c1c(I)c(NC(C)=O)c(I)c(C(=O)O)c1I` shows growth equal to 114

For `O=C(Nc1ccc(OCc2nnc(-c3ccc(Cl)cc3)o2)c(F)c1)Nc1ccc(Cl)c(C(F)(F)F)c1` the compound record lists growth as 20.2
